measured_target: T1, His-tagged P3028 (human, also: His tag, length and end not given here)
T1 construct: in solution at 0.5 ug/mL, detected with mouse anti-His antibody and rabbit anti-mouse peroxidase (rampo); also called PGE73; His-tag-P3028; not shown: His tag
T1 peptide: VFDEFKPLVEEPQNLIK
assay_protocol: PEPSCAN ELISA, peptide on chip;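 note: binding detected by peroxidase ELISA with ABTS, OD405 colour imaged by CCD camera before and after staining, raw OD405 reported as rampo units, air-bubble wells scored 0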
Ends that are not written are not given here.
Classify as follows. Reported RAMPO Score greater than or equal to 500 rampo units: fulfilled. Reported RAMPO Score below: not fulfilled.

KKLDTFFVKNSLFTER [SEQ ID NO 337]    not fulfilled

Q: Does the reported RAMPO Score for KKLDTFFVKLSLFFER [SEQ ID NO 376] fall at or above the 500 rampo units mark?
Ans: not fulfilled

Q: Does the reported RAMPO Score for KKLDTFFVKLSNFTER [SEQ ID NO 354] fall at or above the 500 rampo units mark?
Ans: not fulfilled

Q: Does the reported RAMPO Score for KKLDTFFVKLTLFTER [SEQ ID NO 349] fall at or above the 500 rampo units mark?
Ans: fulfilled

Q: Does the reported RAMPO Score for KKMDTFFVKLSLFTER [SEQ ID NO 291] fall at or above the 500 rampo units mark?
Ans: not fulfilled
